system: Mv-1-Lu mink lung epithelial cells; assay: Inhibition of DNA synthesis (3H-thymidine incorporation) and proliferation of Mv-1-Lu cells; assay type: cell-based; details: 10 nM; 3H-thymidine incorporation, MV-1-Lu cells
If the reported Inhibition in comparison to cytomodulin (Inhib by new peptide/Inhib by cytomodulin) equals or exceeds 1, assign Fulfilled. If not, assign Not fulfilled.

| SUBSTANCE | LABEL VALUE |
| --- | --- |
| L-I-A-Q-A-K (LIAQAK; TGF-beta mimic) [SEQ ID NO:12] | Fulfilled |
| L-I-A-G-G-E (LIAGGE; TGF-beta mimic) [SEQ ID NO:13] | Fulfilled |
| A-N-V-A-E-K (ANVAEK; TGF-beta mimic) [SEQ ID NO:15] | Not fulfilled |
| L-I-A-K-G-K (LIAKGK; TGF-beta mimic) [SEQ ID NO:16] | Not fulfilled |
| L-I-A-G-E-G (LIAGEG; TGF-beta mimic) [SEQ ID NO:14] | Not fulfilled |
| L-I-A-D-A-K (LIADAK; TGF-beta mimic) [SEQ ID NO:9] | Not fulfilled |
| L-I-A-N-A-K (LIANAK; TGF-beta mimic) [SEQ ID NO:10] | Fulfilled |
